Measured values drawn from the supplement of paper PMC11208160 for this set.

# test.details: recombinant barcode read abundance after kanamycin selection (control-corrected) (log10(CPM+1)); higher = more efficient recombination; sequences stand for … in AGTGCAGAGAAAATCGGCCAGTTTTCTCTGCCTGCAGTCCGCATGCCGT…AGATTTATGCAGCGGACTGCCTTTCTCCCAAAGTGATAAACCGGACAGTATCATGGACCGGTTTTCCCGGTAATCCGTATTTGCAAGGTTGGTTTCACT; site = the 11-nt target
Please mark True if the recorded recombinant barcode read abundance (log10) is equal to or greater than 1, and False if it falls below.

Consider the worked cases shown below.
>>> label_class("GTGCAAACTTGGGTTCTAACCTGTTGCCT (site GTGCACACTTG)")
"False"
>>> label_class("CAATGGTCTTGGGTTCTAACCTGTTGCTT (site CAATGGTCTAT)")
"True"
>>> label_class("CATCGTACTTGGGTTCTAACCTGTTGCAT (site CCTCGGACTAT)")
"False"
>>> label_class("CTCGTTGCTTGGGTTCTAACCTGTTGCCT (site CTCGTTGCTAG)")
"False"

Q) For this sequence, is measured recombinant barcode read abundance (log10) 1 or higher? GCCGATCCTTGGGTTCTAACCTGTTGCCT (site GACGATCCTAG)
A) False

Q) Check if recombinant barcode read abundance (log10) >= 1 (inclusive). Item: CCAGTGACTTGGGTTCTAACCTGTTGCCT (site CCAGTGACTAG)
A) True

Q) # bool: recombinant barcode read abundance (log10) of ACGGCTCCTTGGGTTCTAACCTGTTGCTG (site ACGGCTCCTCA) >= 1
A) True

Q) Identify whether the reported recombinant barcode read abundance (log10) of the following sequence is 1 or greater: GTACAATCTTGGGTTCTAACCTGTTGCCT (site GTACAATCTAG)
A) True

Q) Quick check: does TCGGAGTCTTGGGTTCTAACCTGTTGCCG (site TCGGAGTCTCG) have recombinant barcode read abundance (log10) greater than or equal to 1?
A) True

Q) Does recombinant barcode read abundance (log10) meet or surpass 1 for TGCGTCACTTGGGTTCTAACCTGTTGCGT (site TGCGTCACTAC) ?
A) True

----------
# test.details: recombinant UMI read abundance after kanamycin selection (control-corrected) (log10(CPM+1)); higher = more efficient recombination; extreme values may be limits of the assay; sequences stand for … in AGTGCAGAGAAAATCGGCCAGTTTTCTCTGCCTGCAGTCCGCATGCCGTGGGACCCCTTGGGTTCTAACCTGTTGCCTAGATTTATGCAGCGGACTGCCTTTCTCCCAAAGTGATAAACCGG…AGGTTGGTTTCACT; site = the 11-nt donor
readout: recombinant UMI read abundance (log10)
Give your answer as a number; write no unit.

Solved entries (count: 5):
>>> observed("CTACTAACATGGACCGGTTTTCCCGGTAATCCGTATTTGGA (site CTACTAACTTA)")
1.4
>>> observed("ATCTAGGCATGGACCGGTTTTCCCGGTAATCCGTATTTGGC (site ATGTAGGCTGC)")
0
>>> observed("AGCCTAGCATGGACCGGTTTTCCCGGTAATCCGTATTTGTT (site AGCCCAGCTAA)")
0.00418
>>> observed("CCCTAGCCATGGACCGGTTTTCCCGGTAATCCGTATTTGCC (site CCCAAGCCTGG)")
0
>>> observed("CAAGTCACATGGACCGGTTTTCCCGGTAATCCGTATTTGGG (site CAAGTCTCTCC)")
0.493

Q) Any idea what its recombinant UMI read abundance (log10) is? The sequence is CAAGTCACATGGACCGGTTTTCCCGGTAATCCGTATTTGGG (site CAAGTCACTCC)
A) 0.013

Q) Would you kindly share the measured recombinant UMI read abundance (log10) for TTCTAGACATGGACCGGTTTTCCCGGTAATCCGTATTTGTT (site TTCTAGACTAA) ?
A) 0.0133

Q) Could you share which recombinant UMI read abundance (log10) value was measured for TGCACGACATGGACCGGTTTTCCCGGTAATCCGTATTTGCC (site TGCACGACTGG) ?
A) 1.52

Q) Recorded recombinant UMI read abundance (log10) of TCGTACTCATGGACCGGTTTTCCCGGTAATCCGTATTTGCA (site TCTTACTCTTG) , please.
A) 2.29

Q) Quick check: recombinant UMI read abundance (log10) of CAAGCGCCATGGACCGGTTTTCCCGGTAATCCGTATTTGTC (site CAAGCGCCTGA) ?
A) 2.51

Q) I am curious: what recombinant UMI read abundance (log10) value has been reported for GAGGAATCATGGACCGGTTTTCCCGGTAATCCGTATTTGCG (site GAGGAATCTCG) ?
A) 2.47

Q) # query: recombinant UMI read abundance (log10) of entry ACTAGTGCATGGACCGGTTTTCCCGGTAATCCGTATTTGCT (site ACTAGTGCTAA)
A) 0.335

Q) Fill in: recombinant UMI read abundance (log10) of TAGCGAGCATGGACCGGTTTTCCCGGTAATCCGTATTTGTA (site TAGCGAGCTTA) is ___
A) 1.82

Q) Requested field: recombinant UMI read abundance (log10). Item: CTGCAAACATGGACCGGTTTTCCCGGTAATCCGTATTTGCA (site CTGTAAACTTG)
A) 0

Q) Can you share its recombinant UMI read abundance (log10)? I mean this sequence: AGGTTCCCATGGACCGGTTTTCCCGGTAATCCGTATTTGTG (site AGGCTCCCTCA)
A) 0.149

Q) Quick one: recombinant UMI read abundance (log10) of AAGCAGGCATGGACCGGTTTTCCCGGTAATCCGTATTTGGG (site AAGCACGCTCC) ?
A) 0.0214

Q) Look up recombinant UMI read abundance (log10): CCCTACCCATGGACCGGTTTTCCCGGTAATCCGTATTTGCC (site CCCTACCCTGG)
A) 0.541

Q) I have this sequence here, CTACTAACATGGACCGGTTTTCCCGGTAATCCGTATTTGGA (site CCACTAACTTC) , and I need its recorded recombinant UMI read abundance (log10).
A) 0.567
